- conditionSet: in 2-ethoxyethanol, 278.15 K
recordedMetric: solubility (mole fraction)
Enter a number only.

## Input solubility (mole fraction) for "Cc1c(-c2ccccc2)oc2c(C(=O)OCCN3CCCCC3)cccc2c1=O.Cl" ?
## Output 0.000121

====

- conditionSet: in ethylene glycol, 288.15 K
recordedMetric: solubility (mole fraction)
When you answer, write just the number.

## Input Can you look up the measured solubility (mole fraction) of "Cc1c(-c2ccccc2)oc2c(C(=O)OCCN3CCCCC3)cccc2c1=O.Cl" for me?
## Output 0.00136

====

- conditionSet: in NMP, 298.15 K
recordedMetric: solubility (mole fraction)
Reply: number alone, nothing else.

## Input I would be grateful if you could share the reported solubility (mole fraction) for "Cc1c(-c2ccccc2)oc2c(C(=O)OCCN3CCCCC3)cccc2c1=O.Cl" .
## Output 0.000548

====

- conditionSet: in n-propanol, 313.15 K
recordedMetric: solubility (mole fraction)
Give the figure only, with no unit attached.

## Input # solubility (mole fraction) lookup, item "Cc1c(-c2ccccc2)oc2c(C(=O)OCCN3CCCCC3)cccc2c1=O.Cl"
## Output 0.000252

====

- conditionSet: in ethanol, 278.15 K
recordedMetric: solubility (mole fraction)
Give your answer as a number; write no unit.

## Input Returns the measured solubility (mole fraction) for the input molecule. Input: "Cc1c(-c2ccccc2)oc2c(C(=O)OCCN3CCCCC3)cccc2c1=O.Cl"
## Output 8.81e-05

====

- conditionSet: in 2-propoxyethanol, 278.15 K
recordedMetric: solubility (mole fraction)
Reply: number alone, nothing else.

## Input Endpoint output: solubility (mole fraction) of "Cc1c(-c2ccccc2)oc2c(C(=O)OCCN3CCCCC3)cccc2c1=O.Cl" . Value?
## Output 0.000193

====

- conditionSet: in ethanol, 308.15 K
recordedMetric: solubility (mole fraction)
I only need the number, thanks.

## Input What value of solubility (mole fraction) has been recorded for this entry: "Cc1c(-c2ccccc2)oc2c(C(=O)OCCN3CCCCC3)cccc2c1=O.Cl"
## Output 0.000284

====

- conditionSet: in 2-propoxyethanol, 293.15 K
recordedMetric: solubility (mole fraction)
Please respond with just the number, no unit label.

## Input Given the entry "Cc1c(-c2ccccc2)oc2c(C(=O)OCCN3CCCCC3)cccc2c1=O.Cl" , report its measured solubility (mole fraction).
## Output 0.000303

====

- conditionSet: in 2-ethoxyethanol, 313.15 K
recordedMetric: solubility (mole fraction)
Answer as a number with no unit attached.

## Input Please report the recorded solubility (mole fraction) for "Cc1c(-c2ccccc2)oc2c(C(=O)OCCN3CCCCC3)cccc2c1=O.Cl" .
## Output 0.00044

====

- conditionSet: in water, 308.15 K
recordedMetric: solubility (mole fraction)
Write the number on its own, no unit after it.

## Input Reported solubility (mole fraction) for "Cc1c(-c2ccccc2)oc2c(C(=O)OCCN3CCCCC3)cccc2c1=O.Cl" : what is it?
## Output 0.000629

====

- conditionSet: in methanol, 288.15 K
recordedMetric: solubility (mole fraction)
Form rule: numeric answer, no unit written next to it.

## Input Which measured solubility (mole fraction) value corresponds to "Cc1c(-c2ccccc2)oc2c(C(=O)OCCN3CCCCC3)cccc2c1=O.Cl" ?
## Output 0.000808

====

- conditionSet: in 2-methoxyethanol, 318.15 K
recordedMetric: solubility (mole fraction)
Write no unit; give the number alone.

## Input Which solubility (mole fraction) value is on record for "Cc1c(-c2ccccc2)oc2c(C(=O)OCCN3CCCCC3)cccc2c1=O.Cl" ?
## Output 0.00152
